Molecular target: SpMyo1
Assay: SPOT peptide array binding signal intensity (averaged, normalized) (arbitrary units (background-subtracted, floor 0; scale differs between SH3 domains)); higher = stronger binding of the SH3 domain to the peptide
Consider the following binders and their measured SPOT peptide array binding signal intensity readings.
test-readout: SPOT peptide array binding signal intensity

binder	lt-gt-eq	measured-value
LRIKRKPVQTFFEFI	=	4.5
TSIEIPKRSPLRFTS	=	12.5
ILARAILTIPRVLDK	=	1.5
NENKKLPPAPTVFGL	≤	0
